Assayed System: T1, mouse CD73 (mouse, UniProt Q61503 29-551, limits assumed)
T1 construct: also called murine CD73
T1 sequence (looked up): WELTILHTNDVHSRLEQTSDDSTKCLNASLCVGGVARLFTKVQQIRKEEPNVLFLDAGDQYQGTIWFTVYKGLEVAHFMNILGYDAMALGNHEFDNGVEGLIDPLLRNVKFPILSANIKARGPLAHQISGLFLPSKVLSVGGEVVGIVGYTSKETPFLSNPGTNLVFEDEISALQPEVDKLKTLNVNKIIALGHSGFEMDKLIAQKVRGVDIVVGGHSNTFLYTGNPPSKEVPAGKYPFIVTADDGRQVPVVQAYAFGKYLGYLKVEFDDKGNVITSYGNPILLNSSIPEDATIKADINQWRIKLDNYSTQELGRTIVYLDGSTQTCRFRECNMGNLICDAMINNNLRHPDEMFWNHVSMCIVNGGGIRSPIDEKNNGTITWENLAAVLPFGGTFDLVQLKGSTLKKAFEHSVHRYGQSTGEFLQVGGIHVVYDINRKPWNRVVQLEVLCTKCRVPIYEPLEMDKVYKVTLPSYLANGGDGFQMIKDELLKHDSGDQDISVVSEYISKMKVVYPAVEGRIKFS
Measurement Protocol: SPR, mouse CD73 compared with human CD73 (reference)
Measurement Type: fold higher binding to human CD73 than to mouse CD73

{"columns": ["Binder", "Reported Value"],
 "data": [
  ["C3 (antibody, human IgG1, kappa, L234A L235A, V domains shown, Humanized monoclonal antibody; also called anti-CD73 antibody C3) VH: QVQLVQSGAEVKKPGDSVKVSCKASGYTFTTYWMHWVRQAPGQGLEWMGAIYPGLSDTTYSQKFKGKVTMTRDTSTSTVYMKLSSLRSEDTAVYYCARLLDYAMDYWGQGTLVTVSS VL: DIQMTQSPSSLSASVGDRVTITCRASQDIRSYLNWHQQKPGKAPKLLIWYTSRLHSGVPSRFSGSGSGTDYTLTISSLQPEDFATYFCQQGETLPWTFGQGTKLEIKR", "117 fold"],
  ["C4 (antibody, human IgG1, kappa, L234A L235A, V domains shown, Humanized monoclonal antibody; also called C04; inventive anti-CD73 antibody C4) VH: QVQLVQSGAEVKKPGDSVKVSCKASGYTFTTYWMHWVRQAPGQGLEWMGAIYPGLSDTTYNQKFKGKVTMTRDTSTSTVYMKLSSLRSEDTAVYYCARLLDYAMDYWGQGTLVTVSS VL: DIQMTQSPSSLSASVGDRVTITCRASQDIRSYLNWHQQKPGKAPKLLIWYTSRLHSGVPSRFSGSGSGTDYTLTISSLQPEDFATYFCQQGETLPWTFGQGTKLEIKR", "120 fold"],
  ["C2 (antibody, human IgG1, kappa, L234A L235A, V domains shown, Humanized monoclonal antibody; also called anti-CD73 antibody C2) VH: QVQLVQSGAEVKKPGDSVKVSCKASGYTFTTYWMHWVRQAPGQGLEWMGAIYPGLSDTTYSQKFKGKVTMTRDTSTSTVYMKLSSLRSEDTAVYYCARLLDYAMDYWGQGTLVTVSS VL: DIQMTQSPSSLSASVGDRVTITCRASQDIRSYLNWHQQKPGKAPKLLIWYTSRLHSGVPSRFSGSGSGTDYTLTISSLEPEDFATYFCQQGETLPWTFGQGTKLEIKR", "138 fold"],
  ["C5 (antibody, human IgG1, kappa, L234A L235A, V domains shown, Humanized monoclonal antibody; also called anti-CD73 antibody C5) VH: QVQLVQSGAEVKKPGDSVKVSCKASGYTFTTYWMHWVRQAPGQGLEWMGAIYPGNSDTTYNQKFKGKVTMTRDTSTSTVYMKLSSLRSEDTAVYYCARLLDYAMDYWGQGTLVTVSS VL: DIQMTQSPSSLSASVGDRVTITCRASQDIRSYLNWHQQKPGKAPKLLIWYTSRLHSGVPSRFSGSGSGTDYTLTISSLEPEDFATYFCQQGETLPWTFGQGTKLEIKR", "163 fold"],
  ["C6 (antibody, human IgG1, kappa, L234A L235A, V domains shown, Humanized monoclonal antibody; also called anti-CD73 antibody C6) VH: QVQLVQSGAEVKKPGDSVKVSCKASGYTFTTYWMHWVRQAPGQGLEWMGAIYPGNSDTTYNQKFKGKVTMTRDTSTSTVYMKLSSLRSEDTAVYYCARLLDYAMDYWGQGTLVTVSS VL: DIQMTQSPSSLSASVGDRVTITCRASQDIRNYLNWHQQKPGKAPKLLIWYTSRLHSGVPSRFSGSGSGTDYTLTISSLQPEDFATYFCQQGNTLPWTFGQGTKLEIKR", "58 fold"]
]}

Alright, here's another binder for you.
The recorded fold higher binding to human CD73 than to mouse CD73 for entry C1 (antibody, human IgG1, kappa, L234A L235A, V domains shown, Humanized monoclonal antibody; also called anti-CD73 antibody C1) VH: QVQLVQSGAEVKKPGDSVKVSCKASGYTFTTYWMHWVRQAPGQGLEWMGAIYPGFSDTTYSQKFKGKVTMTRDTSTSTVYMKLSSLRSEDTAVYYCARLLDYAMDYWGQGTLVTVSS VL: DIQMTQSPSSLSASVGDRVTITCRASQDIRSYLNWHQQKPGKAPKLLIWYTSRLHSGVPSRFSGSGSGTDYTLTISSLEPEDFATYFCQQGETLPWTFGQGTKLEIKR equals 96 fold
